As shown below, each of these molecules has a reported log10(IC50) value.
- study target: Replicase polyprotein 1ab (Severe acute respiratory syndrome coronavirus 2, UniProt P0DTD1)
// do not treat as linear: log10 of IC50, unit nM

CN(C(=O)[C@H](Cc1ccccc1)NC(=O)OCc1ccccc1)N(C#N)Cc1ccccc1Cl | 2.17
CN(C(=O)[C@H](Cc1ccccc1)NC(=O)CNc1c(F)cccc1F)N(C#N)Cc1ccc(Cl)cc1 | 2.99
CN1C(=O)[C@H](Cc2ccccc2)N(C(=O)COc2ccc(Cl)cc2Cl)CCCOc2ccc(Cl)c(F)c2CN1C#N | 1.76
CN1C(=O)[C@H](Cc2ccccc2)N(C(=O)COc2ccc(Cl)cc2Cl)CCCCCOc2ccc(F)cc2CN1C#N | 1.68

Exam item: Supply recorded log10(IC50) for "COc1ccc(OCC(=O)N[C@@H](Cc2ccccc2)C(=O)N(C)N(C#N)Cc2ccc(Cl)cc2)cc1" here.
Marked response: 3.09

Exam item: Supply recorded log10(IC50) for "CN(C(=O)[C@H](Cc1cccc(F)c1)NC(=O)[C@@H](NC(=O)c1cccs1)C(C)(C)C)N(C#N)Cc1cccc(Cl)c1F" here.
Marked response: 0.60

Exam item: Supply recorded log10(IC50) for "CN(C(=O)[C@H](Cc1ccccc1)NC(=O)COc1ccc(F)c(F)c1)N(C#N)Cc1ccc(Cl)cc1" here.
Marked response: 3.06

Exam item: Supply recorded log10(IC50) for "CN(C(=O)[C@H](Cc1ccccc1)NC(=O)CCc1ccc(F)c(F)c1)N(C#N)Cc1ccc(Cl)cc1" here.
Marked response: 3.15

---

# Ki per entry for Procathepsin L (Homo sapiens, UniProt P07711)
Just the number please, in nM, no unit attached.

CN(C(=O)[C@H](Cc1ccccc1)NC(=O)[C@@H](NC(=O)C1CCCC1)C(C)(C)C)N(C#N)Cc1ccc(Cl)cc1 | 344
CN(C(=O)[C@H](Cc1ccccc1)NC(=O)[C@@H](NC(=O)c1cccs1)C(C)(C)C)N(C#N)Cc1cccc(Cl)c1F | 93.5
CN(C(=O)[C@H](Cc1ccccc1F)NC(=O)[C@@H](NC(=O)c1cccs1)C(C)(C)C)N(C#N)Cc1cccc(Cl)c1F | 49.6
CN(C(=O)[C@H](Cc1ccccc1Cl)NC(=O)[C@@H](NC(=O)c1cccs1)C(C)(C)C)N(C#N)Cc1cccc(Cl)c1F | 56.1
CN(C(=O)[C@H](Cc1cccc(F)c1)NC(=O)[C@@H](NC(=O)c1cccs1)C(C)(C)C)N(C#N)Cc1cccc(Cl)c1F | 178

Exam item: Supply recorded Ki for "CN(C(=O)[C@H](Cc1ccccc1)NC(=O)[C@@H](NC(=O)c1cccs1)C1CCCCC1)N(C#N)Cc1ccc(Cl)cc1" here.
Marked response: 25.1

Exam item: Supply recorded Ki for "CN(C(=O)[C@H](Cc1cccs1)NC(=O)[C@@H](NC(=O)c1cccs1)C(C)(C)C)N(C#N)Cc1cccc(Cl)c1F" here.
Marked response: 130

Exam item: Supply recorded Ki for "CN(C(=O)[C@H](Cc1ccccc1)NC(=O)[C@@H](NC(=O)c1cccs1)C(C)(C)C)N(C#N)Cc1ccc(Cl)cc1" here.
Marked response: 179

Exam item: Supply recorded Ki for "CN(C(=O)[C@H](Cc1cccc(Cl)c1)NC(=O)[C@@H](NC(=O)c1cccs1)C(C)(C)C)N(C#N)Cc1cccc(Cl)c1F" here.
Marked response: 163

---

- study target: Replicase polyprotein 1ab (Severe acute respiratory syndrome coronavirus 2)
pIC50: −log10 of the molar value.
Label scheme for pIC50: lower than 7 is condition not met, 7 and above is condition met.

CN(C(=O)[C@H](Cc1ccccc1)NC(=O)OCc1ccccc1)N(C#N)Cc1ccc(F)cc1 | condition not met
CN(C(=O)[C@H](Cc1ccccc1)NC(=O)[C@@H](NC(=O)c1cccs1)C(C)(C)C)N(C#N)Cc1ccc(Cl)cc1 | condition met
CN1C(=O)[C@H](Cc2ccccc2)N(C(=O)COc2ccc(Cl)cc2Cl)CCCOc2c(Cl)cccc2CN1C#N | condition met
CN(C(=O)[C@H](Cc1ccccc1)NC(=O)OCc1ccccc1)N(C#N)Cc1cccc(Cl)c1F | condition met
COc1cccc2[nH]c(C(=O)N[C@@H](Cc3ccccc3)C(=O)N(C)N(C#N)Cc3ccc(Cl)cc3)cc12 | condition met

Exam item: pIC50 >= 7 for "CN1C(=O)[C@H](Cc2ccccc2)NC(=O)COCCOc2ccc(F)cc2CN1C#N" ?
Marked response: condition not met

Exam item: pIC50 >= 7 for "CN(C(=O)[C@H](Cc1ccccc1)NC(=O)OCc1ccccc1)N(C#N)Cc1ccc([N+](=O)[O-])cc1" ?
Marked response: condition not met

Exam item: pIC50 >= 7 for "CN(C(=O)[C@H](Cc1ccccc1)NC(=O)CNc1ccc(F)cc1F)N(C#N)Cc1ccc(Cl)cc1" ?
Marked response: condition not met

---

- assay comment: in vitro
- recorded conditions: male, human, plasma
As shown below, each of these compounds has a reported half-life at 100 µM value.
Just the number please, in h, no unit attached.

Here is how some compounds turned out for half-life at 100 µM.
CN1C(=O)[C@H](Cc2ccccc2)N(C(=O)CNC(=O)c2cccs2)CCCOc2c(Cl)cccc2CN1C#N | 3
COc1ccc([C@@H]2Sc3ccccc3N(CCN(C)C)C(=O)[C@@H]2OC(C)=O)cc1.Cl [DILTIAZEM HYDROCHLORIDE] | 13.1

Exam item: Supply recorded half-life at 100 µM for CCN(CC)CCOC(=O)c1ccc(N)cc1.Cl [PROCAINE HYDROCHLORIDE] here.
Marked response: 0.103

Exam item: Supply recorded half-life at 100 µM for "CN1C(=O)[C@H](Cc2ccccc2)N(C(=O)COc2ccc(Cl)cc2Cl)CCCOc2c(Cl)cccc2CN1C#N" here.
Marked response: 1.92

---

- study target: Replicase polyprotein 1ab (Severe acute respiratory syndrome coronavirus 2, UniProt P0DTD1)
As shown below, each of these compounds has a reported log10 IC50 value.
// do not treat as linear: log10 of IC50, unit nM

CN(C(=O)[C@H](Cc1ccccc1)NC(=O)COc1cccc(Cl)c1)N(C#N)Cc1ccc(Cl)cc1 | 3.03

Exam item: Supply recorded log10 IC50 for "CN1C(=O)[C@H](Cc2ccccc2)N(C(=O)COc2ccc(Cl)cc2Cl)CCCCOc2ccc(F)cc2CN1C#N" here.
Marked response: 1.62

Exam item: Supply recorded log10 IC50 for "COc1ccc(Cl)c(F)c1CN(C#N)N(C)C(=O)[C@H](Cc1ccccc1)NC(=O)OCc1ccccc1" here.
Marked response: 2.59

Exam item: Supply recorded log10 IC50 for "CN(C(=O)[C@H](Cc1ccccc1)NC(=O)OCc1ccccc1)N(C#N)Cc1ccccc1Br" here.
Marked response: 2.27

Exam item: Supply recorded log10 IC50 for "CN(C(=O)[C@H](Cc1ccccc1)NC(=O)COc1ccc2c(c1)NC(=O)CC2)N(C#N)Cc1ccc(Cl)cc1" here.
Marked response: 2.98

Exam item: Supply recorded log10 IC50 for "CN(C(=O)[C@H](Cc1ccccc1)NC(=O)[C@@H](Nc1ccc([N+](=O)[O-])cc1[N+](=O)[O-])C(C)(C)C)N(C#N)Cc1ccc(Cl)cc1" here.
Marked response: 3.35

Exam item: Supply recorded log10 IC50 for "CN(C(=O)[C@H](Cc1ccccc1)NC(=O)OCc1ccccc1)N(C#N)Cc1ccc(Br)c(Cl)c1F" here.
Marked response: 2.10

Exam item: Supply recorded log10 IC50 for "CN(C(=O)[C@H](Cc1ccccc1)NC(=O)[C@@H](NC(=O)c1cccs1)C1CCCCC1)N(C#N)Cc1ccc(Cl)cc1" here.
Marked response: 1.26

---

# pIC50 per entry for Replicase polyprotein 1ab (Severe acute respiratory syndrome coronavirus 2)
The quantity pIC50 is defined as the negative base-10 logarithm of the molar concentration.

CN(C(=O)[C@H](Cc1ccccc1)NC(=O)OCc1ccccc1)N(C#N)Cc1ccc(Br)cc1 | 6.70
CN(C(=O)[C@H](Cc1ccccc1)NC(=O)OCc1ccccc1)N(C#N)Cc1ccsc1 | 6.38
COc1c(Cl)cccc1CN(C#N)N(C)C(=O)[C@H](Cc1ccccc1)NC(=O)OCc1ccccc1 | 6.37

Exam item: Supply recorded pIC50 for "CN1C(=O)[C@H](Cc2ccccc2)N(C(=O)CNC(=O)c2cccs2)CCCOc2c(Cl)cccc2CN1C#N" here.
Marked response: 8.52

Exam item: Supply recorded pIC50 for "CN(C(=O)[C@H](Cc1ccccc1)NC(=O)OCc1ccccc1)N(C#N)Cc1ccco1" here.
Marked response: 6.69

Exam item: Supply recorded pIC50 for "CN(C(=O)[C@H](Cc1ccccc1)NC(=O)c1cc2cc(Cl)ccc2[nH]1)N(C#N)Cc1ccc(Cl)cc1" here.
Marked response: 7.11

Exam item: Supply recorded pIC50 for "CN(C(=O)[C@H](Cc1ccccc1)NC(=O)OCc1ccccc1)N(C#N)Cc1cccc(Cl)c1" here.
Marked response: 7.06

Exam item: Supply recorded pIC50 for "CN(C(=O)[C@H](Cc1ccccc1)NC(=O)[C@@H](NC(=O)c1ccc(-c2cccs2)s1)C(C)(C)C)N(C#N)Cc1ccc(Cl)cc1" here.
Marked response: 6.27

Exam item: Supply recorded pIC50 for "CN(C(=O)[C@H](Cc1ccccc1)NC(=O)[C@@H](NC(=O)c1cccs1)C(C)(C)C)N(C#N)Cc1cccc(Cl)c1F" here.
Marked response: 7.82

Exam item: Supply recorded pIC50 for "CN(C(=O)[C@H](Cc1ccccc1)NC(=O)OCc1ccccc1)N(C#N)Cc1cccc(F)c1" here.
Marked response: 6.85

Exam item: Supply recorded pIC50 for "CN(C(=O)[C@H](Cc1ccccc1)NC(=O)C1(NC(=O)c2cccs2)CC1)N(C#N)Cc1ccc(Cl)cc1" here.
Marked response: 6.25

Exam item: Supply recorded pIC50 for "CN(C(=O)[C@H](Cc1ccccc1)NC(=O)OCc1ccccc1)N(C#N)Cc1ccccc1F" here.
Marked response: 6.86

Exam item: Supply recorded pIC50 for "CN(C(=O)[C@H](Cc1cccc(Cl)c1)NC(=O)[C@@H](NC(=O)c1cccs1)C(C)(C)C)N(C#N)Cc1cccc(Cl)c1F" here.
Marked response: 8.05
